# study-target: bovine serum albumin (BSA) (Bos taurus, UniProt P02769)
# Construct: purchased Sigma Aldrich
# Sequence (P02769 25-607): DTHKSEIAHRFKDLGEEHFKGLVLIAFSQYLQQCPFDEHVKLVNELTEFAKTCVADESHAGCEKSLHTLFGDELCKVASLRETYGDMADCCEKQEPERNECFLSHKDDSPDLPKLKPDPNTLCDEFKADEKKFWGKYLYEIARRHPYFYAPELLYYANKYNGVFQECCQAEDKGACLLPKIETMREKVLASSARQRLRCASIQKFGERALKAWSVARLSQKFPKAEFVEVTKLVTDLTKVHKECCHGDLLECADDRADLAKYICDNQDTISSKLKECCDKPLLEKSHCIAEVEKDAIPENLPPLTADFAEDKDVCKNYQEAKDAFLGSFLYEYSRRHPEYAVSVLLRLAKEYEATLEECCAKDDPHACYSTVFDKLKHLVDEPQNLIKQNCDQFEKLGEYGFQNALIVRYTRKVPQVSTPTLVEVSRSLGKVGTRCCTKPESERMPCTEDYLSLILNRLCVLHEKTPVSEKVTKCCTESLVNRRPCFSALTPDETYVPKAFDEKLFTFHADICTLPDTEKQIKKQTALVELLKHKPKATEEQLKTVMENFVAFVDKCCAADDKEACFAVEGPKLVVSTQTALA
# assay-procedure: NP TLC on plates impregnated with bovine serum albumin
# Type: binding
# experimental-setup: Table S8, external group
parameter-measured: NP (Rf value from the NP plate impregnated with 2 mg/mL BSA solution)

> print(dat)
                                   compound  assay.result
1  CCCCN1CCCCC1C(=O)Nc1c(C)cccc1C (stereo not drawn)          0.67
2  NC(=O)N1c2ccccc2CC(=O)c2ccccc21 [oxcarbamazepine]          0.90
3            CN(C)CCC=C1c2ccccc2CCc2ccccc21          0.31
4  CCC(C)n1ncn(-c2ccc(N3CCN(c4ccc(OCC5COC(Cn6cncn6)(c6ccc(Cl)cc6Cl)O5)cc4)CC3)cc2)c1=O (stereo not drawn)          0.97
5  CCC[C@@H]1C[C@@H](C(=O)N[C@@H]([C@H]2O[C@H](SC)[C@H](O)[C@@H](O)[C@H]2O)[C@@H](C)O)N(C)C1          0.91
6       CC(C)(C)NC[C@H](O)COc1nsnc1N1CCOCC1          0.32
7                 CC[C@@H](C(N)=O)N1CCCC1=O          0.92
8  O=C(c1ccccc1)c1ccc2n1CCC2C(=O)O (stereo not drawn)          0.91
9       CCS(=O)(=O)CCn1c([N+](=O)[O-])cnc1C          0.88

---

Let's look at some molecules and their measured RP (Rf value from the RP plate impregnated with 2 mg/mL BSA solution).
# study-target: bovine serum albumin (BSA) (Bos taurus)
# Construct: purchased Sigma Aldrich
# assay-procedure: RP TLC on plates impregnated with bovine serum albumin
# Type: binding
# experimental-setup: Table S8, external group
parameter-measured: RP (Rf value from the RP plate impregnated with 2 mg/mL BSA solution)

molecule	study-target	assay-result
CCCCN1CCCCC1C(=O)Nc1c(C)cccc1C (stereo not drawn)	bovine serum albumin (BSA) (Bos taurus)	0.75
CC(N)C12CC3CC(CC(C3)C1)C2 (stereo not drawn)	bovine serum albumin (BSA) (Bos taurus)	0.95
CC(=O)Nc1nnc(S(N)(=O)=O)s1	bovine serum albumin (BSA) (Bos taurus)	0.96
CCOC(=O)C1=C(C)NC(C)=C(C(=O)OC)C1c1cccc([N+](=O)[O-])c1 (stereo not drawn)	bovine serum albumin (BSA) (Bos taurus)	0.86
CCC(C)n1ncn(-c2ccc(N3CCN(c4ccc(OCC5COC(Cn6cncn6)(c6ccc(Cl)cc6Cl)O5)cc4)CC3)cc2)c1=O (stereo not drawn)	bovine serum albumin (BSA) (Bos taurus)	0.84
CN(C)CCC=C1c2ccccc2COc2ccccc21 [doxepin]	bovine serum albumin (BSA) (Bos taurus)	0.54
CN(C)CCC=C1c2ccccc2CCc2ccccc21	bovine serum albumin (BSA) (Bos taurus)	0.63
CC(C)(C)NC[C@H](O)COc1nsnc1N1CCOCC1	bovine serum albumin (BSA) (Bos taurus)	0.97
CC[C@@H](CO)NCCN[C@@H](CC)CO	bovine serum albumin (BSA) (Bos taurus)	0.95
CCC1(c2ccccc2)C(=O)NCNC1=O	bovine serum albumin (BSA) (Bos taurus)	0.97
NC(=O)N1c2ccccc2CC(=O)c2ccccc21 [oxcarbamazepine]	bovine serum albumin (BSA) (Bos taurus)	0.91
Nc1ccc(O)c(C(=O)O)c1	bovine serum albumin (BSA) (Bos taurus)	0.97
CC[C@@H](C(N)=O)N1CCCC1=O	bovine serum albumin (BSA) (Bos taurus)	0.92
CO[C@H]1/C=C/O[C@@]2(C)Oc3c(C)c(O)c4c(O)c(c(/C=N/N5CCN(C)CC5)c(O)c4c3C2=O)NC(=O)/C(C)=C\C=C\[C@H](C)[C@H](O)[C@@H](C)[C@@H](O)[C@@H](C)[C@H](OC(C)=O)[C@@H]1C	bovine serum albumin (BSA) (Bos taurus)	0.94
O=C(c1ccccc1)c1ccc2n1CCC2C(=O)O (stereo not drawn)	bovine serum albumin (BSA) (Bos taurus)	0.96

---

# assay-procedure: NP TLC on non-impregnated control plates
# Format: physicochemical
# experimental-setup: Table S3, non-impregnated NP plate; acetonitrile/acetate buffer pH 7.4/methanol 60:20:20
parameter-measured: CNP (Rf, control NP plate)

compound	assay-result
COc1ccccc1OCCNCC(O)COc1cccc2[nH]c3ccccc3c12 (stereo not shown)	0.73
Clc1cccc(Cl)c1N=C1NCCN1	0.49
CCN(Cc1ccncc1)C(=O)C(CO)c1ccccc1 (stereo not shown)	0.85
CCCc1nc2c(C)cc(-c3nc4ccccc4n3C)cc2n1Cc1ccc(-c2ccccc2C(=O)O)cc1	0.90
O=c1n(CCCN2CCN(c3cccc(Cl)c3)CC2)nc2ccccn12	0.71
COC(=O)[C@@H]1CC2=CC(=O)CC[C@]2(C)[C@@]23O[C@@H]2C[C@@]2(C)[C@@H](CC[C@@]24CCC(=O)O4)[C@H]13	0.94
CC(C)NCC(O)COc1ccc(COCCOC(C)C)cc1 (stereo not shown)	0.67
CCCN1C[C@H](CSC)C[C@@H]2c3cccc4[nH]cc(c34)C[C@H]21 [pergolide]	0.48
CCOCCn1c(C2CCN(CCc3ccc(C(C)(C)C(=O)O)cc3)CC2)nc2ccccc21	0.46
NS(=O)(=O)c1cc(C2(O)NC(=O)c3ccccc32)ccc1Cl (stereo not shown)	0.96
CN1C(C(=O)Nc2ccccn2)=C(O)c2ccccc2S1(=O)=O	0.98
OCCOCCN1CCN(C2=Nc3ccccc3Sc3ccccc32)CC1	0.68
OCCN1CCN(CC/C=C2/c3ccccc3Sc3ccc(Cl)cc32)CC1	0.47
CN1CCC(=C2c3ccccc3CC(=O)c3sccc32)CC1	0.34
CC(=O)OCC(=O)[C@@]1(O)CC[C@H]2[C@@H]3CCC4=CC(=O)CC[C@]4(C)[C@H]3[C@@H](O)C[C@@]21C [hydrocortisone acetate]	0.96
CC[C@H]1OC(=O)[C@H](C)[C@@H](O[C@H]2C[C@@](C)(OC)[C@@H](O)[C@H](C)O2)[C@H](C)[C@@H](O[C@@H]2O[C@H](C)C[C@H](N(C)C)[C@H]2O)[C@](C)(OC)C[C@@H](C)C(=O)[C@H](C)[C@@H](O)[C@]1(C)O	0.99

---

Let's look at some compounds and their measured k IAM.
# assay-procedure: HPLC on immobilized artificial membrane column (HPLCIAM)
# Type: physicochemical
# experimental-setup: Table S5, retention factor, IAM column, phosphate buffer pH 7.4/acetonitrile 80:20
parameter-measured: k IAM

> print(dat)
                                        mol  parameter.measured  assay.result
1       Cc1cc2c(s1)Nc1ccccc1N=C2N1CCN(C)CC1               k IAM         20.31
2  CCC[C@H](N[C@@H](C)C(=O)N1[C@H](C(=O)O)C[C@@H]2CCCC[C@@H]21)C(=O)OCC               k IAM          0.18
3  C[C@]12CC[C@@H]3c4ccc(O)cc4CC[C@H]3[C@@H]1CCC2=O               k IAM         29.40
4  CCOc1ccc(/C=C2\NCCc3cc(OCC)c(OCC)cc32)cc1OCC               k IAM         31.24
5  CCOC(=O)[C@H](CCc1ccccc1)N[C@@H](C)C(=O)N1CCC[C@H]1C(=O)O               k IAM          0.05

---

# assay-procedure: HPLC on immobilized artificial membrane column (HPLCIAM)
# Type: physicochemical
# experimental-setup: Table S5, IAM column, pH 7.4
Let's look at some compounds and their measured log k IAM.
parameter-measured: log k IAM

compound	parameter-measured	assay-result
C[C@]12CC[C@@H]3c4ccc(O)cc4CC[C@H]3[C@@H]1CCC2=O	log k IAM	1.47
CC(C)C[C@H]1C(=O)N2CCC[C@H]2[C@]2(O)O[C@](NC(=O)[C@@H]3C=C4c5cccc6[nH]c(Br)c(c56)C[C@H]4N(C)C3)(C(C)C)C(=O)N12	log k IAM	1.10
CN1CCN(C(=O)OC2c3nccnc3C(=O)N2c2ccc(Cl)cn2)CC1 (stereo not shown)	log k IAM	-0.04
CN1CCN2c3ncccc3Cc3ccccc3C2C1 (stereo not shown)	log k IAM	0.77
Cc1ccc(S(=O)(=O)NC(=O)NN2CC3CCCC3C2)cc1 (stereo not shown) [gliclazide]	log k IAM	-0.55
CC[C@H]1OC(=O)[C@H](C)[C@@H](O[C@H]2C[C@@](C)(OC)[C@@H](O)[C@H](C)O2)[C@H](C)[C@@H](O[C@@H]2O[C@H](C)C[C@H](N(C)C)[C@H]2O)[C@](C)(OC)C[C@@H](C)C(=O)[C@H](C)[C@@H](O)[C@]1(C)O	log k IAM	-1.02
Clc1cccc(Cl)c1N=C1NCCN1	log k IAM	0.45

FYI, the data here is from paper PMC9182007.
